Molecular target: DLG4_3, P78352
Sequence (P78352 306-403): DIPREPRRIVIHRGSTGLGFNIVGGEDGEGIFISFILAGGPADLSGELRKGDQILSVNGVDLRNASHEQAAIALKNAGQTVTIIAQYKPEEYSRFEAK
Assay: holdup assay
Design: key: below the threshold = too weak to quantify, mostly under pKd 3.1 to 4
Conditions: plain residues with an end cap or a label only (N-terminal biotin on a linker: ado-ado)
Quantity: pKd

1) QSYPSKHDYV [CLDN18, P56856] | below the threshold
2) EDGESWEYQI [TRPV6, Q9H1D0] | below the threshold
3) IDESKKEWLI [CNTNAP2, Q9UHC6] | below the threshold

The reported measurements were obtained from paper PMC9482650.
